Reported solubility kinetic values follow for various compounds
# particulars: buffer; pH 7.4; 200.0 µM

{"compound": "O=S(=O)(Nc1cccc(S(=O)(=O)N2CCCC2)c1)c1cccs1", "value.modifier": "=", "solubility kinetic / µg/mL": 51.9}
{"compound": "O=C(OCC(=O)N1CCCC1)c1cc(F)c(F)cc1Cl", "value.modifier": "=", "solubility kinetic / µg/mL": 45.3}
{"compound": "Cc1ccc(-n2sc3ccccc3c2=O)cc1", "value.modifier": "=", "solubility kinetic / µg/mL": 9.2}
{"compound": "CC(C)[C@H](NC(=O)c1ccccc1F)C(=O)OCC(=O)Nc1sccc1C(N)=O", "value.modifier": ">", "solubility kinetic / µg/mL": 63.2}
{"compound": "COc1cccc(/C=N/NC(=O)c2ccc3nc[nH]c3c2)c1", "value.modifier": ">", "solubility kinetic / µg/mL": 44.1}
{"compound": "O=C1CCN(C(=S)NCc2ccccc2)CC1", "value.modifier": ">", "solubility kinetic / µg/mL": 37.3}
{"compound": "Cc1cc(-c2ccccc2)nc(SCc2ccc(C(=O)O)cc2)n1", "value.modifier": "=", "solubility kinetic / µg/mL": 43.5}
{"compound": "CNC(=S)NCCc1c[nH]c2ccc(OC)cc12", "value.modifier": ">", "solubility kinetic / µg/mL": 39.5}
{"compound": "OCCNc1nc2ccccc2n1CC(O)c1ccccc1 (stereo unspecified)", "value.modifier": "=", "solubility kinetic / µg/mL": 40.4}
{"compound": "Cc1ccc2cccc(SCC(=O)Nc3ccc(F)cc3)c2n1", "value.modifier": "<", "solubility kinetic / µg/mL": 0.3}
{"compound": "Cc1csc(=O)n1CCC(=O)NCc1ccc(F)cc1", "value.modifier": ">", "solubility kinetic / µg/mL": 44.2}
{"compound": "Cc1oc(-c2ccccc2)cc1C(=O)NCc1ccncc1", "value.modifier": "=", "solubility kinetic / µg/mL": 36.7}
{"compound": "CS(=O)(=O)N(CC(=O)N1CCOCC1)c1cccc(F)c1", "value.modifier": "=", "solubility kinetic / µg/mL": 40.7}
{"compound": "O=C(COC(=O)COc1ccccc1)Nc1cccnc1Cl", "value.modifier": ">", "solubility kinetic / µg/mL": 48.1}
{"compound": "Cc1ccc(C(=O)NCC(=O)Nc2ccc3c(c2)CCC3)cc1C", "value.modifier": "=", "solubility kinetic / µg/mL": 2.6}
{"compound": "N#CC1CN(Cc2ccccc2)CN(Cc2ccccc2)C1", "value.modifier": "=", "solubility kinetic / µg/mL": 32.9}
{"compound": "O=C(C1CCC1)N1CCN(c2ccccc2)CC1", "value.modifier": "=", "solubility kinetic / µg/mL": 35.6}
{"compound": "CCOC(=O)c1c(/N=C/N(C)C)sc(C)c1C", "value.modifier": "=", "solubility kinetic / µg/mL": 37.3}
{"compound": "CCC(=O)Nc1cccc(-c2cn3cccc(C)c3n2)c1", "value.modifier": "=", "solubility kinetic / µg/mL": 39.8}
{"compound": "O=C(NC1CCN(Cc2ccc(F)cc2)CC1)c1ccccc1", "value.modifier": "=", "solubility kinetic / µg/mL": 40.7}
{"compound": "CCOc1ccc2c(c1)[nH]c(=S)n2C", "value.modifier": ">", "solubility kinetic / µg/mL": 31.2}
{"compound": "CCOc1ccc(CC(=O)N/N=C/c2cccnc2)cc1", "value.modifier": ">", "solubility kinetic / µg/mL": 42.5}
{"compound": "O=C(O)C1CCN(S(=O)(=O)c2cccc3cccnc23)CC1", "value.modifier": ">", "solubility kinetic / µg/mL": 48.1}
{"compound": "COCc1cc(C)nc(SCc2ccccc2Cl)c1C#N", "value.modifier": "=", "solubility kinetic / µg/mL": 0.3}
{"compound": "CCOc1ccc(CN(C)C(=O)Cc2c[nH]c3ccccc23)cc1", "value.modifier": "=", "solubility kinetic / µg/mL": 42}
{"compound": "CC(C)(CCO)NC(=S)NC1CC2C=CC1C2 (stereo unspecified)", "value.modifier": ">", "solubility kinetic / µg/mL": 38.2}
